Value source: patent US20080200654A1

# study-system: T1, A33 antigen (full-length human A33) (human, UniProt Q99795 22-319)
# T1 construct: Class I cell membrane protein of the Ig superfamily; also called GPA33; human A33 antigen
# T1 sequence: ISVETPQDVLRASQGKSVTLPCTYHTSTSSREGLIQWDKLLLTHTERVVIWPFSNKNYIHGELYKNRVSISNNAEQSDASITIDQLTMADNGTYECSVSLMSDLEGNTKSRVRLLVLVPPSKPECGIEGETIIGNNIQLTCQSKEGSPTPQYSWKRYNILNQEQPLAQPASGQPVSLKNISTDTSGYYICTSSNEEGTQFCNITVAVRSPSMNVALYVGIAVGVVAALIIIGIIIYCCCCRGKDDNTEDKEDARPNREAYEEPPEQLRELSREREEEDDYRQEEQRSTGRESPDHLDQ
# test-protocol: FCM on LS174T cells; grade = ng/ml to reach half MFI 100 (+++ 10<=x<100, ++ 100<=x<1000, + 1000<=x<10000)
reported-endpoint: antibody concentration required to reach half value of the mean fluorescence intensity

Below: 2 binders and their reported antibody concentration required to reach half value of the mean fluorescence intensity.
binder	result
chimeric anti-A33 antibody (antibody, V domains shown, Mouse variable regions with human IgG1 heavy chain and light chain constant regions (N5KG1-Val Lark vector); also called cA33; chimeric anti-A33 recombinant antibody) VH: EVKLVESGGGLVKPGGSLKLSCAASGFAFSTYDMSWVRQTPEKRLEWVATISSGGSYTYYLDSVKGRFTISRDSARNTLYLQMSSLRSEDTALYYCAPTTVVPFAYWGQGTLVTVSS VL: DIVMTQSQKFMSTSVGDRVSITCKASQNVRTVVAWYQQKPGQSPKTLIYLASNRHTGVPDRFTGSGSGTDFTLTISNVQSEDLADYFCLQHWSYPLTFGSGTKLEVK	10 to 100 ng/mL
recN26 (antibody, V domains shown, also called recN26 antibody; N26 recombinant antibody) VH: QVQLVESGGGVVQPGRSLRLSCAASGFTFSHYGMHWVRQAPGKGLEWVALIWYDGSNKYYADSVKGRFTISRDNSKNTLYLQMNSLRAEDTAVYYCARDPLAAGTSYFDYWGQGTLVTVSS VL: EIVLTQSPDFQSVTPKEKVTITCRASQSIGSSLHWYQQKPDQSPKLLIKYASQSFSGVPSRFSGSGSGTDFTLTINSLEAEDAAAYYCHQSSSLPFTFGPGTKVDIK	10 to 100 ng/mL

Switching to the query record.
Please give the measured antibody concentration required to reach half value of the mean fluorescence intensity for this binder: recQ54 (antibody, V domains shown, also called recQ54 antibody; Q54 recombinant antibody) VH: EVQLLESGGGLVQPGGSLRLSCAASGFTFSSYAMSWVRQAPGKGLEWVSDISGSGGYTYYADSVKGRFTISRDNSKNTLYLQMNSLRAEDTAVYYCAKTGDGSGSYSPDSWGQGTLVTVSS VL: DIQMTQSPSSLSASVGDRVTITCRASQGISRWLAWYQQKPEKAPKSLIYAASSLQSGVPSRFSGSGSGTDFTLTISSLQPEDFATYYCQQYNSYPYTFGQGTKLEIK
10 to 100 ng/mL
